Reported Excitation Max values are given for each entry in this list.
- Test Details: Absorbance/emission spectra in ethanol
- Type: physicochemical
- Parameters: key: wavelength in nm
- Cond: solutions in ethanol
Please give only the number in your answer, with no unit.

# Smiles Repr, Excitation Max
measured = [
    ("CCCCCCCCCCCCCCCCCCCCCC[N+]1=C(/C=C/C=C/C=C/C=C2/N(CCCCCCCCCCCCCC)c3ccc4ccccc4c3C2(C)C)C(C)(C)c2c1ccc1ccccc21.[I-]", 790),
    ("CCCCCCCCCCCCCCCCCCCCCC[N+]1=C(/C=C/C=C/C=C2/N(CCCCCCCCCCCCCC)c3ccc4ccccc4c3C2(C)C)C(C)(C)c2ccccc21", 667),
    ("CCCCCCCCCCCCCCCCCCCCCC[N+]1=C(/C=C/C=C/C=C2/N(CCCCCCCCCCCCCC)c3ccc4ccccc4c3C2(C)C)C(C)(C)c2c1ccc1ccccc21.[I-]", 680),
]

Kindly consider the entry below.
Incoming: I'd like to know its Excitation Max. The compound in question is CCCCCCCCCCCCCCCCCCCCCC[N+]1=C(/C=C/C=C/C=C2/N(CCCCCCCCCCCCCC)c3ccccc3C2(C)C)C(C)(C)c2ccccc21.[I-]
Outgoing: 647

----------
- Test Details: Absorbance/emission spectra in ethanol
- Format: physicochemical
- Design: key: wavelength in nm
- Cond: solutions in ethanol
Measured Emission Max, listed per entry.

Past entries and their recorded results:
# Smiles Repr, Assay Endpoint, Observed Measurement
measured = [
    ("CCCCCCCCCCCCCCCCCCCCCC[N+]1=C(/C=C/C=C/C=C2/N(CCCCCCCCCCCCCC)c3ccccc3C2(C)C)C(C)(C)c2ccccc21.[I-]", "Emission Max", 667),
    ("CCCCCCCCCCCCCCCCCCCCCC[N+]1=C(/C=C/C=C/C=C/C=C2/N(CCCCCCCCCCCCCC)c3ccc4ccccc4c3C2(C)C)C(C)(C)c2c1ccc1ccccc21.[I-]", "Emission Max", 814),
    ("CCCCCCCCCCCCCCCCCCCCCC[N+]1=C(/C=C/C=C/C=C2/N(CCCCCCCCCCCCCC)c3ccc4ccccc4c3C2(C)C)C(C)(C)c2ccccc21", "Emission Max", 682),
]

Kindly review the next compound as well.
Incoming: Emission Max lookup needed for CCCCCCCCCCCCCCCCCCCCCC[N+]1=C(/C=C/C=C/C=C2/N(CCCCCCCCCCCCCC)c3ccc4ccccc4c3C2(C)C)C(C)(C)c2c1ccc1ccccc21.[I-] , thanks.
Outgoing: 713

----------
- Test Details: Absorbance/emission spectra in ethanol
- Type: physicochemical
- Cond: solutions in ethanol
Assay Endpoint: Absorbance Max
Answer with a number only.

# Smiles Repr, Absorbance Max
measured = [
    ("CCCCCCCCCCCCCCCCCCCCCC[N+]1=C(/C=C/C=C/C=C2/N(CCCCCCCCCCCCCC)c3ccccc3C2(C)C)C(C)(C)c2ccccc21.[I-]", 626),
    ("CCCCCCCCCCCCCCCCCCCCCC[N+]1=C(/C=C/C=C/C=C2/N(CCCCCCCCCCCCCC)c3ccc4ccccc4c3C2(C)C)C(C)(C)c2ccccc21", 666),
    ("CCCCCCCCCCCCCCCCCCCCCC[N+]1=C(/C=C/C=C/C=C/C=C2/N(CCCCCCCCCCCCCC)c3ccc4ccccc4c3C2(C)C)C(C)(C)c2c1ccc1ccccc21.[I-]", 786),
]

Next compound, please.
Incoming: Fill blank: measured Absorbance Max of the compound CCCCCCCCCCCCCCCCCCCCCC[N+]1=C(/C=C/C=C/C=C2/N(CCCCCCCCCCCCCC)c3ccc4ccccc4c3C2(C)C)C(C)(C)c2c1ccc1ccccc21.[I-] is ____.
Outgoing: 684

----------
- Tested on: YAC-1 murine lymphoma cells
- Test Details: Probe effects on cell viability and cell growth (Maximum Tolerated Concentration)
- Format: cell-based
- Cond: at MTC, 22-24 hours culture, versus diluent alone
Reported values of Growth Inhibition for individual entries

Incoming: Missing value: Growth Inhibition, YAC-1 murine lymphoma cells, entry CCCCCCCCCCCCCCCCCCCCCC[N+]1=C(/C=C/C=C/C=C/C=C2/N(CCCCCCCCCCCCCC)c3ccc4ccccc4c3C2(C)C)C(C)(C)c2c1ccc1ccccc21.[I-] [Compound 15] . Fill in?
Outgoing: <5%

Incoming: So what Growth Inhibition did CCCCCCCCCCCCCCCCCCCCCC[N+]1=C(/C=C/C=C/C=C2/N(CCCCCCCCCCCCCC)c3ccccc3C2(C)C)C(C)(C)c2ccccc21.[I-] [Compound 8] get with YAC-1 murine lymphoma cells?
Outgoing: <1%

Incoming: I'm curious: which Growth Inhibition was measured for CCCCCCCCCCCCCCCCCCCCCC[N+]1=C(/C=C/C=C/C=C2/N(CCCCCCCCCCCCCC)c3ccc4ccccc4c3C2(C)C)C(C)(C)c2c1ccc1ccccc21.[I-] [Compound 13] tested on YAC-1 murine lymphoma cells?
Outgoing: <1%

Incoming: Lab note: need Growth Inhibition for CCCCCCCCCCCCCCCCCCCCCC[N+]1=C(/C=C/C=C/C=C2/N(CCCCCCCCCCCCCC)c3ccc4ccccc4c3C2(C)C)C(C)(C)c2ccccc21 [Compound 25] on YAC-1 murine lymphoma cells, anyone have it?
Outgoing: <4%

Incoming: Field: Growth Inhibition (YAC-1 murine lymphoma cells). Entry: CCCCCCCCCCCCCCCCCCCCCC[N+]1=C(/C=C/C=C2/N(CCCCCCCCCCCCCC)c3ccccc3C2(C)C)C(C)(C)c2ccccc21.[I-] [PKH26, reference compound]
Outgoing: <1%

----------
- Test Details: Absorbance/emission spectra in ethanol
- Assay type: physicochemical
- Cond: excitation light of about 647 nm
Assay Endpoint: emission maximum wavelength

Incoming: What value of emission maximum wavelength has been reported for the following molecule? CCCCCCCCCCCCCCCCCCCCCC[N+]1=C(/C=C/C=C/C=C2/N(CCCCCCCCCCCCCC)c3ccc4ccccc4c3C2(C)C)C(C)(C)c2c1ccc1ccccc21.[I-]
Outgoing: 713 nm

----------
- Test Details: Solubility of FR/NIR probes in ethanol, water and Diluent C
- Type: physicochemical
- Cond: organic solvent or mixture
Assay Endpoint: solubility

Incoming: Could you tell me which solubility is on file for CCCCCCCCCCCCCCCCCCCCCC[N+]1=C(/C=C/C=C/C=C2/N(CCCCCCCCCCCCCC)c3ccc4ccccc4c3C2(C)C)C(C)(C)c2ccccc21 ?
Outgoing: ≥ 1000 µM

Provenance of the data: patent US7462347B2
